Molecular target: Bromodomain-containing protein 3 (Homo sapiens, UniProt Q15059)
Sequence (Q15059 whole entry, the tested form may be a part): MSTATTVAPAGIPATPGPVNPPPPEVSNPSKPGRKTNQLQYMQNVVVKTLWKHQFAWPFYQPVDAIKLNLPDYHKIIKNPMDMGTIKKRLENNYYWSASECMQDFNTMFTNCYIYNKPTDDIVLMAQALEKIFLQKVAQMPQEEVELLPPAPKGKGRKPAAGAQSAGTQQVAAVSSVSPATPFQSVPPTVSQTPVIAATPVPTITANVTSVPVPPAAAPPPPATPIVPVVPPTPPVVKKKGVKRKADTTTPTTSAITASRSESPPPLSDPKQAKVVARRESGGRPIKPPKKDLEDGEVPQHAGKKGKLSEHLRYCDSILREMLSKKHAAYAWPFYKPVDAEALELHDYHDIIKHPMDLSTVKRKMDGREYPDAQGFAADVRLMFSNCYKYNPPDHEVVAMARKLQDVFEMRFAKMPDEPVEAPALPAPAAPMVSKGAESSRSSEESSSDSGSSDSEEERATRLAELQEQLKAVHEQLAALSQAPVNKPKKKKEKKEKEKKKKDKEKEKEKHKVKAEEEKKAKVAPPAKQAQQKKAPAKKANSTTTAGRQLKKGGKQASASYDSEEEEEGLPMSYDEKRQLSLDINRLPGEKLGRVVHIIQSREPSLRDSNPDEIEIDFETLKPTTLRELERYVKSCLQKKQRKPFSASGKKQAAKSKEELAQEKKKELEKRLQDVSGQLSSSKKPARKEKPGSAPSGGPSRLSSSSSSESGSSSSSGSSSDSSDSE
Assay: Displacement of biotinylated tetra-acetylated histone H4 from His6-tagged BRD3 (1 to 475 aa) (unknown origin) after 1 hr by TR-FRET assay
Please respond with reported pIC50 for every item in the list.
Give bare numbers, as −log10 of the molar value.

INSERT INTO measurements (molecule, data_value) VALUES
  ('CC(=O)N1c2ccc(-c3ccccc3)cc2[C@H](Nc2ccccc2)C[C@@H]1C (racemic)', 6.30),
  ('CC(=O)N1c2ccc(-c3cccc(C(=O)O)c3)cc2[C@H](Nc2ccc(Cl)cc2)C[C@@H]1C (racemic)', 6.30),
  ('CC(=O)N1c2ccc(-c3ccc(C(=O)O)cc3)cc2[C@H](Nc2ccccc2)C[C@@H]1C (racemic)', 6.40);

Would you mind listing pIC50 for each of the following molecules?
1. CC(=O)N1c2ccc(-c3ccc(C(=O)O)cc3)cc2[C@H](Nc2ccc(C)cc2)C[C@@H]1C (racemic)
2. CC(=O)N1c2ccc(-c3ccc(CN4CCOCC4)cc3)cc2[C@H](Nc2ccccc2)C[C@@H]1C (racemic)
3. CC(=O)N1c2ccc(-c3ccc(C(=O)O)cc3)cc2[C@H](Nc2ccc(C)cc2)C[C@@H]1C
4. CC(=O)N1c2ccc(-c3ccc(CN4CCCCC4)cc3)cc2[C@H](N)C[C@@H]1C (racemic)
5. COC(=O)c1ccc(-c2ccc3c(c2)[C@H](Nc2ccc(C(C)(C)C)cc2)C[C@H](C)N3C(C)=O)cc1 (racemic)
6. CC(=O)N1c2ccc(-c3ccc(C(=O)O)cc3)cc2[C@H](Nc2ccc(Cl)cc2)C[C@@H]1C (racemic)

6.50
6.20
6.80
4.60
6.30
6.40

Each molecule below has a recorded value; state its pIC50.
1. CC(=O)N1c2ccc(-c3ccc(CO)cc3)cc2[C@H](Nc2ccccc2)C[C@@H]1C (racemic)
2. COC(=O)c1cccc(-c2ccc3c(c2)[C@H](Nc2ccc(Cl)cc2)C[C@H](C)N3C(C)=O)c1 (racemic)
3. CC(=O)N1c2ccc(-c3ccc(C(=O)O)cc3)cc2[C@H](Nc2ccc(Cl)cc2)C[C@@H]1C
4. CC(=O)N1c2ccc(-c3ccc(CN4CCCCC4)cc3)cc2[C@H](Nc2ccccc2)C[C@@H]1C
5. CC(=O)N1c2ccc(-c3ccc(C#N)cc3)cc2[C@H](Nc2cccc(F)c2)C[C@@H]1C (racemic)
6. COC(=O)c1ccc(-c2ccc3c(c2)[C@H](Nc2ccccc2)C[C@H](C)N3C(C)=O)cc1 (racemic)

1: 6.30; 2: 6.00; 3: 6.70; 4: 6.50; 5: 6.10; 6: 6.00

Looking for the measured pIC50 of COc1cccc(N[C@@H]2C[C@H](C)N(C(C)=O)c3ccc(-c4ccc(C(=O)O)cc4)cc32)c1 (racemic) , can you help?
6.30

---

Assay: AUC (0 to t) in rat at 3 mg/kg, po
Type: ADME, organism-based
Design: dose 3 mg/kg, route oral
Settings: plasma
EXPERIMENTAL ENDPOINT: AUC(0-t) (ng·h/mL)
Numbers only, in ng·h/mL.

I am curious: what AUC(0-t) value has been reported for CC(=O)N1c2ccc(-c3ccc(C(=O)O)cc3)cc2[C@H](Nc2ccc(Cl)cc2)C[C@@H]1C ?
539

---

Experiment: Blood clearance in Cynomolgus monkey at 1 mg/kg, iv as infusion and 3 mg/kg, po
Assay type: ADME, organism-based, Macaca fascicularis
Conditions: whole blood
EXPERIMENTAL ENDPOINT: clearance (mL/min/kg)
One number for each entry, in mL/min/kg.

Requested read-out: clearance. Entry: CC(=O)N1c2ccc(-c3ccc(C(=O)O)cc3)cc2[C@H](Nc2ccc(Cl)cc2)C[C@@H]1C
3

---

Target: Bromodomain testis-specific protein (Homo sapiens, UniProt Q58F21)
Assay: Inhibition of BRDT (unknown origin) by TR-FRET assay
EXPERIMENTAL ENDPOINT: pIC50
Numbers only, as −log10 of the molar value.

Look up pIC50 for this compound: CC(=O)N1c2ccc(-c3ccc(C(=O)O)cc3)cc2[C@H](Nc2ccc(Cl)cc2)C[C@@H]1C
7.30

---

Assay: Clearance in dog hepatocytes assessed per gram of tissue at 1 uM by LC-MS/MS analysis
Type: ADME, cell-based, Canis lupus familiaris, Hepatocyte
EXPERIMENTAL ENDPOINT: CLH (mL/min/g)
Numbers only, in mL/min/g.

Which CLH reading was recorded for the molecule CC(=O)N1c2ccc(-c3ccc(CN4CCCCC4)cc3)cc2[C@H](Nc2ccccc2)C[C@@H]1C ?
0.9

---

Target: Protein polybromo-1 (Homo sapiens, UniProt Q86U86)
Sequence (Q86U86 whole entry): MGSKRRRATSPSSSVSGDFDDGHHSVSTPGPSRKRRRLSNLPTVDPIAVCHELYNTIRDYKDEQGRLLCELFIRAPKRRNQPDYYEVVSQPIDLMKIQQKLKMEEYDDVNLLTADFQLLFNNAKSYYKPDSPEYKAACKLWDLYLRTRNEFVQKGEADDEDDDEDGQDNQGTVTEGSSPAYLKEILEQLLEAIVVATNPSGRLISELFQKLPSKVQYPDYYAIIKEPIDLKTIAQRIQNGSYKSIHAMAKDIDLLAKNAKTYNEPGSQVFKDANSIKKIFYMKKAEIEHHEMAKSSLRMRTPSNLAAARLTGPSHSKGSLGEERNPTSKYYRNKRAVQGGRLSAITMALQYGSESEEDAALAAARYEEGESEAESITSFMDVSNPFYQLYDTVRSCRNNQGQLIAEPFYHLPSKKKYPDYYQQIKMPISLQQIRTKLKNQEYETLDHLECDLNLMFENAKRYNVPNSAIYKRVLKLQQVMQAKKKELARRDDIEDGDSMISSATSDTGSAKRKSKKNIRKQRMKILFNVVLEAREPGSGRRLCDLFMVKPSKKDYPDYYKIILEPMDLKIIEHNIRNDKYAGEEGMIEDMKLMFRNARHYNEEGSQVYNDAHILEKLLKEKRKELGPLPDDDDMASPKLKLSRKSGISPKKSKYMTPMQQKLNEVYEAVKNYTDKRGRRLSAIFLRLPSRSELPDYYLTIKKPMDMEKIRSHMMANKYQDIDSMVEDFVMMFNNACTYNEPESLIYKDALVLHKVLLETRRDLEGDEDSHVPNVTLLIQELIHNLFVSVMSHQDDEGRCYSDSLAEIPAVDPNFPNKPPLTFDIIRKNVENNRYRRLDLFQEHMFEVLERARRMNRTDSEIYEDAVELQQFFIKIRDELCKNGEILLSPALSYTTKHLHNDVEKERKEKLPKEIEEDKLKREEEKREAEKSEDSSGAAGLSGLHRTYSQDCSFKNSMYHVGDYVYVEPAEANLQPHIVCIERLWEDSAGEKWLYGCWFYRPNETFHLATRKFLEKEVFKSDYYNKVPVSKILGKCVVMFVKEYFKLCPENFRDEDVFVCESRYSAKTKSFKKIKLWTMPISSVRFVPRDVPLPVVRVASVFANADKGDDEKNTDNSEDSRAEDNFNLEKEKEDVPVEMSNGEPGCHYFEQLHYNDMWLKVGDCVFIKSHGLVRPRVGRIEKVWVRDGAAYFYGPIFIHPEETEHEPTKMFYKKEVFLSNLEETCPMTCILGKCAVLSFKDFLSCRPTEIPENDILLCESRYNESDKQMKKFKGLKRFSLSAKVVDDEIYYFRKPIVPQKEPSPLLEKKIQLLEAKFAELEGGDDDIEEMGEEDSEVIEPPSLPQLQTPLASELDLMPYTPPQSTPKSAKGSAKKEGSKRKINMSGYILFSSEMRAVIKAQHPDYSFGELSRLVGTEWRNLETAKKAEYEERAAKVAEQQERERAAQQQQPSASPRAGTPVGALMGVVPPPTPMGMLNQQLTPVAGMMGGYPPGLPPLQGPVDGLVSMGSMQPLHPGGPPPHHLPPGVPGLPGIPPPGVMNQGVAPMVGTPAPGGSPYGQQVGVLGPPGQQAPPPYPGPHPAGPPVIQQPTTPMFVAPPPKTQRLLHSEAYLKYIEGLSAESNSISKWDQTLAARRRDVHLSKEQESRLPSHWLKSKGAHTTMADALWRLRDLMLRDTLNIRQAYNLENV
Test: Inhibition of human PBRM1 bromodomain 5 by BROMOscan assay
pIC50: −log10 of the molar value.
EXPERIMENTAL ENDPOINT: pIC50

What pIC50 appears in the records for this molecule with Protein polybromo-1 (Homo sapiens, UniProt Q86U86)? CC(=O)N1c2ccc(-c3ccc(C(=O)O)cc3)cc2[C@H](Nc2ccc(Cl)cc2)C[C@@H]1C
< 4.50

---

Target: Bromodomain-containing protein 2 (Homo sapiens, UniProt P25440)
Sequence (P25440 whole entry, the tested form may be a part): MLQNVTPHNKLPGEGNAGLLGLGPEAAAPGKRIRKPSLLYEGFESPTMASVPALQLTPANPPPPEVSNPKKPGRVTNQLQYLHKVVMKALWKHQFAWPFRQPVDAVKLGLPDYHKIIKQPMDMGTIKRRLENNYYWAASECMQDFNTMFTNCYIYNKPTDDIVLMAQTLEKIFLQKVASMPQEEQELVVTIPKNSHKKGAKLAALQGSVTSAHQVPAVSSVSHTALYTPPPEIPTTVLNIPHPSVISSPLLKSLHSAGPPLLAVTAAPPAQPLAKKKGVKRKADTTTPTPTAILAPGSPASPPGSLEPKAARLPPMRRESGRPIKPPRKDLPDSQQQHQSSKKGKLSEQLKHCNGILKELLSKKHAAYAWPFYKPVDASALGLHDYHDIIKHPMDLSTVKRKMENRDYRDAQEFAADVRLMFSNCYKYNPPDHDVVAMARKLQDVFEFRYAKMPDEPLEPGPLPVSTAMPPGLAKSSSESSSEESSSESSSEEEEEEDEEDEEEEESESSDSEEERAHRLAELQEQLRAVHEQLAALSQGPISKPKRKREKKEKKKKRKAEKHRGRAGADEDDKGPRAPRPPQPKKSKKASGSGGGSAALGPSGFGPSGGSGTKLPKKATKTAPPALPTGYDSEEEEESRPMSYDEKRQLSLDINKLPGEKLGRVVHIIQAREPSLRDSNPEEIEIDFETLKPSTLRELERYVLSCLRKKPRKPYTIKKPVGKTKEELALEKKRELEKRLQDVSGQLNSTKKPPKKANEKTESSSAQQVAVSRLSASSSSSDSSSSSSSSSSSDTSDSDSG
Assay: Displacement of biotinylated tetra-acetylated histone H4 from His6-tagged BRD2 (1 to 473 aa) (unknown origin) after 1 hr by TR-FRET assay
Please go through the items and note down their log10(IC50).
Lab note - IC50 converted to log10 from values in nM.

INSERT INTO results (molecule, data_value) VALUES
  ('CC(=O)N1c2ccc(-c3ccc(CN4CCOCC4)cc3)cc2[C@H](Nc2ccccc2)C[C@@H]1C (racemic)', 2.90),
  ('CC(=O)N1c2ccc(-c3ccccc3C)cc2[C@H](Nc2ccc(Cl)cc2)C[C@@H]1C (racemic)', 3.60),
  ('COC(=O)c1ccc(-c2ccc3c(c2)[C@H](Nc2ccc(S(C)(=O)=O)cc2)C[C@H](C)N3C(C)=O)cc1 (racemic)', 3.10),
  ('CC(=O)N1c2ccc(-c3ccc(C(=O)O)cc3)cc2[C@H](Nc2ccc(S(C)(=O)=O)cc2)C[C@@H]1C (racemic)', 3.00);

State recorded log10(IC50) for all listed molecules.
1. CC(=O)N1c2ccc(-c3cccc(CN4CCCCC4)c3)cc2[C@H](Nc2ccccc2)C[C@@H]1C (racemic)
2. COC(=O)c1ccc(-c2ccc3c(c2)[C@H](Nc2ccc(F)cc2)C[C@H](C)N3C(C)=O)cc1 (racemic)

3.10
3.20

---

Molecular target: Bromodomain-containing protein 4 (Homo sapiens, UniProt O60885)
Assay: Displacement of biotinylated tetra-acetylated histone H4 from His6-tagged BRD4 (1 to 477 aa) (unknown origin) after 1 hr by TR-FRET assay
EXPERIMENTAL ENDPOINT: pIC50
Numbers only, as −log10 of the molar value.

INSERT INTO assay_data (compound, data_value) VALUES
  ('CC(=O)N1c2ccc(-c3ccc(C(=O)O)cc3)cc2[C@H](Nc2ccc(S(C)(=O)=O)cc2)C[C@@H]1C (racemic)', 6.50),
  ('COc1ccccc1N[C@@H]1C[C@H](C)N(C(C)=O)c2ccc(-c3ccc(C(=O)O)cc3)cc21 (racemic)', 6.20),
  ('CC(=O)N1c2ccc(-c3ccc(CO)cc3)cc2[C@H](Nc2ccccc2)C[C@@H]1C (racemic)', 6.30),
  ('CC(=O)N1c2ccc(-c3ccc(C(=O)O)cc3)cc2[C@H](Nc2ccc(C)cc2)C[C@@H]1C', 6.60),
  ('COC(=O)c1ccc(-c2ccc3c(c2)[C@H](Nc2ccc(S(C)(=O)=O)cc2)C[C@H](C)N3C(C)=O)cc1 (racemic)', 6.20),
  ('CC(=O)N1c2ccc(-c3ccc(CN4CCOCC4)cc3)cc2[C@H](Nc2ccccc2)C[C@@H]1C (racemic)', 6.30),
  ('CC(=O)N1c2ccc(-c3ccc(C(N)=O)cc3)cc2[C@H](Nc2ccc(Cl)cc2)C[C@@H]1C (racemic)', 6.30),
  ('COc1ccc(-c2ccc3c(c2)[C@H](Nc2ccccc2)C[C@H](C)N3C(C)=O)cc1 (racemic)', 6.20);

Which pIC50 is reported with Bromodomain-containing protein 4 (Homo sapiens, UniProt O60885) for this entry: CC(=O)N1c2ccc(-c3ccc(C#N)cc3)cc2[C@H](Nc2ccccc2)C[C@@H]1C (racemic) ?
6.20

---

Please provide measured IC50 for the entries that follow.
Target: Bromodomain-containing protein 3 (Homo sapiens)
Test: Displacement of biotinylated tetra-acetylated histone H4 from His6-tagged BRD3 (1 to 475 aa) (unknown origin) after 1 hr by TR-FRET assay
Numbers only, in µM.

Completed entries (count: 5):
INSERT INTO assay_data (compound, data_value) VALUES
  ('COC(=O)c1ccc(-c2ccc3c(c2)[C@H](Nc2ccc(F)cc2)C[C@H](C)N3C(C)=O)cc1 (racemic)', 1),
  ('COc1ccc(-c2ccc3c(c2)[C@H](Nc2ccccc2)CCN3C(C)=O)cc1 (racemic)', 1.58),
  ('CC(=O)N1c2ccc(-c3ccc(C(F)(F)F)cc3)cc2[C@H](Nc2ccccc2)C[C@@H]1C (racemic)', 1.26),
  ('COc1cccc(N[C@@H]2C[C@H](C)N(C(C)=O)c3ccc(-c4ccc(C#N)cc4)cc32)c1 (racemic)', 0.794),
  ('COC(=O)c1ccc(-c2ccc3c(c2)[C@H](Nc2ccc(S(C)(=O)=O)cc2)C[C@H](C)N3C(C)=O)cc1 (racemic)', 0.501);

Record IC50 per entry; entries follow.
1. CC(=O)N1c2ccc(-c3ccc(C(=O)O)cc3)cc2[C@H](Nc2ccc(S(C)(=O)=O)cc2)C[C@@H]1C (racemic)
2. CC(=O)N1c2ccc(-c3cccc(CN4CCCCC4)c3)cc2[C@H](Nc2ccccc2)C[C@@H]1C (racemic)

1: 0.316; 2: 0.398
